TARGET_SYSTEM: P. pyralis FLuc (Photinus pyralis, UniProt P08659)
Sequence (P08659 whole entry): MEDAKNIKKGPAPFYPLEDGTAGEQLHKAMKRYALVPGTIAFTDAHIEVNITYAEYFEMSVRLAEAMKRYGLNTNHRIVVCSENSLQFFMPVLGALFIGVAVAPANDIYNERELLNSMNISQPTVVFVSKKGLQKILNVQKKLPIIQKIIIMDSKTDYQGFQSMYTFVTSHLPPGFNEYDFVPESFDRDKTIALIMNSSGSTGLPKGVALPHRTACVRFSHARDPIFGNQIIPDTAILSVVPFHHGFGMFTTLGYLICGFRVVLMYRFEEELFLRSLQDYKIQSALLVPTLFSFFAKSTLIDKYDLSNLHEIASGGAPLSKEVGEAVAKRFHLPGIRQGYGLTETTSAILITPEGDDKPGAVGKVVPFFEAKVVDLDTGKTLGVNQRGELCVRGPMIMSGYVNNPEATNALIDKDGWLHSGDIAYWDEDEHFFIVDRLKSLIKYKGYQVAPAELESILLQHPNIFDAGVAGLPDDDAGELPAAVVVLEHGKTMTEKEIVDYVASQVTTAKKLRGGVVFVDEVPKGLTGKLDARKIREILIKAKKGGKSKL
TEST_PROTOCOL: FLuc enzymatic luminescence assay, P. pyralis FLuc
Assay type: biochemical
Set-up: scale not given here
RUN_PARAMETERS: Sample Data Type FLuc-Km
Method: The enzyme activity of FLuc-N-HiBiT, FLuc-C-HiBiT, and FLuc-C-NLuc was measured similar to P. pyralis firefly luciferase (FLuc) as previously described. […] Luciferin was incubated with FLuc enzyme for 5 min before FLuc activity was then measured on a ViewLux CCD imager (PerkinElmer), with exposure times up to ten seconds with medium to high gain settings. […] 5 Detector ViewLux Read plate lum inescence (Exposure = 1- 10 sec; Gain = Medium -high; Speed = Slow; […]
This section presents compounds with their documented CC-v2 values.
Form rule: numeric answer, no unit written next to it.

Examples with their reported CC-v2 follow.
>  <COMPOUND>
CCC(CC)NC(=O)C1CCN(C(=O)c2ncn3c2COC(c2ccc(F)cc2)C3)CC1 (stereo not shown)

>  <QUANTITATIVE_READOUT>
4

$$$$
>  <COMPOUND>
CC(C)CCNC(=O)C1CCN(C(=O)c2ncn3c2COC(c2ccc(F)cc2)C3)CC1 (stereo not shown)

>  <QUANTITATIVE_READOUT>
4

$$$$
>  <COMPOUND>
Cc1ccc(C2Cn3cnc(C(=O)N4CCC(C(=O)NCCC(C)C)CC4)c3CO2)cc1 (stereo not shown)

>  <QUANTITATIVE_READOUT>
-2.4

$$$$

Proceed to the following item.
For CC(C)NC(=O)C1CCN(C(=O)c2ncn3c2COC(c2ccccc2)C3)CC1 (stereo not shown) the compound record lists CC-v2 as -1.1

====

TARGET_SYSTEM: FLuc-C-NLuc (firefly luciferase) (Photinus pyralis, UniProt P08659, form not given/L550V)
Sequence (P08659 2-550 L550V, form open): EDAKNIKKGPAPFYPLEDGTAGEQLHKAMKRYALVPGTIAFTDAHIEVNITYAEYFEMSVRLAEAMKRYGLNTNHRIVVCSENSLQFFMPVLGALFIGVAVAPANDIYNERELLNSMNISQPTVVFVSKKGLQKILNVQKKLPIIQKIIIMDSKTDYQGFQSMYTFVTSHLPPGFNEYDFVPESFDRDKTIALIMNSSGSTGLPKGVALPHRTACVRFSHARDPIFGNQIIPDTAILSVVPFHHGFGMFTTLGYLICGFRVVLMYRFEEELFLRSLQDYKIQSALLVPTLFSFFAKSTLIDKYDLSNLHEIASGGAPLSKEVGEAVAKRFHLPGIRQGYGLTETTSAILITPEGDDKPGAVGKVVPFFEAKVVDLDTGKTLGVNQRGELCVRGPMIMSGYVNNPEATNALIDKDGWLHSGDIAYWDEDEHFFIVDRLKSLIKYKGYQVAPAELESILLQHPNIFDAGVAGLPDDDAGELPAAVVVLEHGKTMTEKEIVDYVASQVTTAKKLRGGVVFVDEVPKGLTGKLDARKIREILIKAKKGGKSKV
TEST_PROTOCOL: SDR assay, FLuc-C-NLuc
RUN_PARAMETERS: 1 nM FLuc-C-NLuc; normalized activity; Log [Compound], M -7.35
MEASUREMENT_LABEL: SDR + 10 mM ATP
Form rule: numeric answer, no unit written next to it.

Examples with their reported SDR + 10 mM ATP follow.
>  <COMPOUND>
Cc1ccc(-n2ncc3c(N4CCCCCC4)ncnc32)cc1

>  <QUANTITATIVE_READOUT>
5.4

$$$$
>  <COMPOUND>
CC1CCCN(c2ncnc3c2cnn3-c2ccccc2)C1 (centres unmarked)

>  <QUANTITATIVE_READOUT>
4.6

$$$$
>  <COMPOUND>
CC(CNC(=O)C1CCN(C(=O)c2ncn3c2COC(c2ccccc2)C3)CC1)c1ccccc1 (centres unmarked)

>  <QUANTITATIVE_READOUT>
2.2

$$$$
>  <COMPOUND>
CNC(=O)c1cccc2c1CCN2C(=O)Nc1ccc(C)cc1

>  <QUANTITATIVE_READOUT>
12.2

$$$$
>  <COMPOUND>
O=C(O)c1cccc2c1CCN2C(=O)Nc1ccc(F)cc1

>  <QUANTITATIVE_READOUT>
67.6

$$$$

For COc1ccc(-c2nc(-c3ccc(C(=O)O)cc3)no2)cc1 the compound record lists SDR + 10 mM ATP as 48.2

For O=C(O)CCSc1nnc(-c2ccc(Cl)cc2Cl)o1 the compound record lists SDR + 10 mM ATP as 24.1

For Fc1ccc(-c2cn3cc(Cc4ccccc4)sc3n2)cc1 the compound record lists SDR + 10 mM ATP as 6.2
